Tested on: A549
Assay: Antiproliferative activity against human A549 cells assessed as cell growth inhibition measured after 72 hrs by MTT assay
Format: functional, cell-based
Settings: A549, 72 h
pIC50: −log10 of the molar value.
Result type: pIC50

>>> endpoint_value("COC(=O)c1ccc(-c2cn(CCCC(=O)Nc3ccc(C)cc3)nn2)cc1")
"< 4.00"
>>> endpoint_value("COC(=O)c1ccc(-n2cc(CCCOC(=O)c3ccc(C)cc3)nn2)cc1")
"< 4.00"
>>> endpoint_value("COC(=O)c1ccc(-c2nnn(CCCOS(=O)(=O)c3ccc(C)cc3)n2)cc1")
"< 4.00"
>>> endpoint_value("COC(=O)c1ccc(-n2cc(CCCNc3ccc(C)cc3)nn2)cc1")
"< 4.00"
>>> endpoint_value("COC(=O)c1ccc(-n2cc(CCCNC(=O)c3ccc(C)cc3)nn2)cc1")
"< 4.00"

Fill in reported pIC50 for this entry: `COC(=O)c1ccc(-n2cc(CCCC(=O)NS(=O)(=O)c3ccc(C)cc3)nn2)cc1` < 4.00

Give the reported pIC50 for this compound. `COC(=O)c1ccc(-n2cc(CCCOS(=O)(=O)c3ccc(C)cc3)nn2)cc1` < 4.00

Let me know recorded pIC50 for `COC(=O)c1ccc(-c2cn(CCCOS(=O)(=O)c3ccc(C)cc3)nn2)cc1` , thanks. < 4.00

Quickly give me recorded pIC50 for `COC(=O)c1ccc(-c2nnc(CCCOS(=O)(=O)c3ccc(C)cc3)o2)cc1` < 4.00

Answer with the recorded pIC50 of `COC(=O)c1ccc(-n2cc(CCCC(=O)Oc3ccc(C)cc3)nn2)cc1` only. < 4.00

Identify measured pIC50 associated with `COC(=O)c1ccc(-c2nnc(CCCOS(=O)(=O)c3ccc(C)cc3)[nH]2)cc1` < 4.00

* * *

Tested on: A549
Assay: Antiproliferative activity against human A549 cells assessed as cell growth inhibition measured after 72 hrs by MTT assay
Type: functional, cell-based
Conditions: A549, 72 h
Result type: pIC50
pIC50 field: float, defined as -log10 of concentration (mol/L).

Name the value of pIC50 reported for `FC(F)(F)c1ccc(-c2cn(CCCC(=S)Nc3ccc(-c4ccccc4)cc3)nn2)cc1` when tested on A549. 6.00

Fill: pIC50 (A549) for this molecule `Cc1ccc(NC(=S)CCCn2cc(-c3ccc(C(F)(F)F)cc3)nn2)cc1` 5.26

State, for A549, measured pIC50 of the molecule listed here: `COC(=O)c1ccc(-n2cc(CCCc3nnc(-c4ccc(C)cc4)[nH]3)nn2)cc1` 4.10

Report value: pIC50, system: A549, molecule: `COC(=O)c1ccc(-c2cn(CCCC(=O)Nc3ccc(-c4ccccc4)cc3)nn2)cc1` 6.48

# lookup: A549 pIC50, key = `COC(=O)c1ccc(-c2cn(CCCC(=S)Nc3ccc(-c4ccccc4)cc3)nn2)cc1` 4.37

Write down the reported pIC50 (system: A549) of `COC(=O)c1ccc(-n2cc(CCCOS(=O)(=O)c3ccc(-c4ccccc4)cc3)nn2)cc1` 4.24

The reported numbers originate from ChEMBL document CHEMBL5120910.
